Tested on: PC-3 prostate
Test: NCI-60 one-dose screen, 48 h (100 = growth as untreated, 0 = no growth, -100 = all killed)
Details: 10 µM unless noted
This is part of a sample that, as a whole, favours compounds with a hit. Of some 83,000 tested, about 20% had one in any assay.
Listed next: entries and their corresponding growth.
measurement.type: growth (%)

INSERT INTO results (compound, tested_target, test_result) VALUES
  ('O=c1oc2ccc(Cl)cc2c(=O)n1-c1ccc(F)cc1F', 'PC-3 prostate', 2.49),
  ('O=C(c1nc2ccccc2[nH]1)C1C(c2ccc(F)cc2)C2CC3CCCCC3N2[C@@]12C(=O)Nc1ccc(Cl)cc12 (stereo not given in full)', 'PC-3 prostate', 35.4),
  ('Cc1c(C(=O)OCCO)cc(-c2ccc(Cl)cc2)n1-c1ccc(Cl)cc1Cl', 'PC-3 prostate', 70.4),
  ('O=C(Nc1ccc(I)cc1F)c1cc(F)ccc1O', 'PC-3 prostate', 3.39),
  ('Cc1nc2ccccc2c(/C=C/c2ccccc2)c1C(=O)/C=C/c1ccc(Cl)cc1', 'PC-3 prostate', 33.9),
  ('COc1cc(C(=O)Nc2ccc(-c3nc4ccccc4[nH]3)cc2)cc(OC)c1OC', 'PC-3 prostate', 52.5),
  ('COC(=O)c1ccc(NC(=O)CSc2nc3ccccc3c(=O)n2-c2ccccc2)cc1', 'PC-3 prostate', 103),
  ('CN1CCN(Cc2ccc(C(=O)Nc3cncc(C#Cc4cnc5cccnn45)c3)cc2C(F)(F)F)CC1', 'PC-3 prostate', 60.4),
  ('CC(=Nc1ccccc1)C1=C(O)C(Cc2ccc(F)cc2)NC1=O (stereo not given)', 'PC-3 prostate', 18.3),
  ('O=C1NC(=S)NC(=O)C1=Cc1cn(Cc2cn(Cc3cccc4ccccc34)nn2)c2ccccc12', 'PC-3 prostate', 93.9);

* * *

Tested on: U251 CNS
Test: NCI-60 one-dose screen, 48 h
Settings: 10 µM unless noted
The panel holds about 83,000 compounds, 20% with a hit somewhere; the sample as a whole holds those more often. Activity calls are given as the source filed them. How the source made its calls: active means growth percent below 10; inactive means the rest.
Outcome codes: active, inactive

INSERT INTO results (compound, label) VALUES
  ('CC(=O)Nc1nc2c(s1)CCc1c-2cn(S(=O)(=O)c2ccccc2)c1-c1ccccc1', 'inactive'),
  ('O=C(Nc1ccc(Cl)cc1)c1cc2ccccc2cc1OP(=O)(O)O', 'inactive'),
  ('COc1ccc(CCN2CCC(CN(C)Cc3cnn(-c4ccccc4)c3)CC2)cc1', 'active'),
  ('O=S1(=O)N(Cc2ccccc2)[C@@H](Cc2ccccc2)C2O[C@H]2[C@H](Cc2ccccc2)N1Cc1ccccc1 (stereo not given in full)', 'inactive'),
  ('C=C(C)CCC(C)N1CCC(N2CCC(C(=O)NCCc3ccccc3)CC2)CC1 (stereo not given)', 'inactive');

* * *

Tested on: SNB-19 CNS
Experiment: NCI-60 one-dose screen, 48 h (100 = growth as untreated, 0 = no growth, -100 = all killed)
Details: 10 µM unless noted
Compounds without any hit were thinned out: in the full panel of roughly 83,000, 20% have a hit. Active and inactive are the calls of the source. Rule for the calls: active = growth percent below 10; inactive = the rest.
Listed next: entries and their corresponding growth.
measurement.type: growth

INSERT INTO assay_data (compound, test_result) VALUES
  ('O=C(Nc1ccc(N2CCNCC2)cc1)c1[nH]ncc1Nc1cc(C2CC2)ncn1', '65.4% (inactive)'),
  ('COc1ccc(-c2nocc2-c2cccs2)cc1', '102% (inactive)'),
  ('COc1cccc(-c2nn(C)c3sc(C(=O)NCCN4CCN(c5ccccc5F)CC4)cc23)c1', '92.4% (inactive)'),
  ('CN=c1ccc2nc3ccc(N)cc3sc-2c1', '30.9% (inactive)'),
  ('CC(C)C[C@H](C(=O)N[C@H](C(N)=O)C(C)C)N1CC=CCN(OCc2ccccc2)S1(=O)=O', '94.7% [2.5 µM] (inactive)'),
  ('COc1cccc(C(=O)NC(c2ccc(C)cc2)c2cc(Cl)c3cccnc3c2O)c1 (stereo not given)', '12.5% (inactive)'),
  ('COc1ccc(C(O)(CCC(C)C)C(CN2CCOCC2)c2ccc(Cl)cc2)cc1 (stereo not given)', '83.6% (inactive)'),
  ('O=c1oc2ccc(I)cc2c(=O)n1-c1ccc(Cl)cc1F', '20.8% (inactive)'),
  ('Cc1ccc(C2CC(c3ccc(Nc4nc(NCCO)nc(Nc5ccc(Cl)cc5)n4)cc3)=NN2c2cc(Cl)cc(Cl)c2)cc1 (stereo not given)', '106% (inactive)'),
  ('O=C(O)CCCN1C(=O)C2C3CCC(C3)C2C1=O (stereo not given)', '104% (inactive)');

* * *

System: RXF 393 renal
Test: NCI-60 one-dose screen, 48 h (100 = growth as untreated, 0 = no growth, -100 = all killed)
Details: 10 µM unless noted
This is part of a sample that, as a whole, favours compounds with a hit. Of some 83,000 tested, about 20% had one in any assay.
measurement.type: growth (%)

INSERT INTO assay_data (compound, measurement_type, test_result) VALUES
  ('C=C[C@@H]1CCC/C=C/[C@@H]2C[C@H](O)C[C@H]2[C@H](O)/C=C/C(=O)O1', 'growth', -5.1),
  ('Nc1nc(-c2cnccn2)nn1-c1nc2ccccc2s1', 'growth', 110),
  ('CN1C(=O)N(C)C2Nn3c(s/c(=C\c4ccc(Cl)cc4Cl)c3=O)=NC21 (stereo unspecified)', 'growth', 39.7),
  ('Nc1cccc(Nc2cc(S(=O)(=O)O)c(N)c3c2C(=O)c2ccccc2C3=O)c1', 'growth', 119),
  ('COc1cc(C(=O)NN=C2c3ccccc3-c3ccccc32)cc(OC)c1OC', 'growth', 16.7),
  ('c1ccc2c(c1)oc1cc3sccc3nc12', 'growth', 109);

* * *

System: A498 renal
Test: NCI-60 one-dose screen, 48 h
Conditions: 10 µM unless noted
About 83,000 compounds went through this panel and 20% of them were active in at least one assay; those are over-represented in the sample as a whole. The source made the active and inactive calls. How the source made its calls: active means growth percent below 10; inactive means the rest.
Outcome codes: y for active, n for inactive

INSERT INTO measurements (compound, tested_target, label) VALUES
  ('O=C1OC(c2ccccc2)(c2ccccc2)c2ccsc21', 'A498 renal', 'n'),
  ('Cc1ccc(F)cc1NC(=O)c1cc(Cl)ccc1Nc1ccccc1', 'A498 renal', 'n'),
  ('C#CCn1cc(C=C2C(=O)N(C)C(=O)N(C)C2=O)c2cc(Cl)ccc21', 'A498 renal', 'n'),
  ('O=C1/C(=C/c2ccc(O)cc2)COc2ccc(O)cc21', 'A498 renal', 'n'),
  ('COc1ccc(C2Nc3nc(OC)n(C)c(=O)c3N=C3c4ccccc4C(=O)C32)cc1 (stereo unspecified)', 'A498 renal', 'n'),
  ('Nc1ccc(-n2c(=O)oc3ccc(Cl)cc3c2=O)c(Cl)c1', 'A498 renal', 'y'),
  ('CCOC(=O)c1cnc2c(C)cccc2c1Nc1ccc(C(C)=O)cc1', 'A498 renal', 'n'),
  ('CCCCNc1nc(NC(C)(C)C)nc(NC(C)(C)C)n1', 'A498 renal', 'n'),
  ('O=C(Nc1ccc(N2CCNCC2)cn1)c1[nH]ncc1Nc1ncnc2sc3c(c12)CCC3', 'A498 renal', 'n'),
  ('COc1cc(/C=C2\CN(C)C/C(=C\c3cc(CN4CCCC4)c(O)c(OC)c3)C2=O)cc(CN2CCCC2)c1O', 'A498 renal', 'n'),
  ('CC(C)(C)c1ccc(C2CC(=O)C3=C(C2)Nc2ccccc2N(C(=O)c2ccccc2Cl)C3c2ccc(F)cc2)cc1 (stereo unspecified)', 'A498 renal', 'n'),
  ('COc1ccc(N2C(=O)CC(c3cc(OC)c(OC)c(OC)c3)C3C2=NC(=O)N3C)cc1 (stereo unspecified)', 'A498 renal', 'n'),
  ('CC1=C(C(=O)OCC2CCN(C(=O)OC(C)(C)C)CC2)[C@H](c2cccc(C#N)c2)C2=C(CC(C)(C)CC2=O)N1', 'A498 renal', 'n'),
  ('Cc1cc2c(c(C)c1Cl)C(=O)/C(=C/c1ccco1)O2', 'A498 renal', 'n'),
  ('CCCCCCc1cc2cc(-c3csc(/C=C/c4ccccc4)n3)c(=O)oc2cc1O', 'A498 renal', 'y'),
  ('COc1ccc(-c2cn[nH]c2-c2cc(OC)c(OC)c(OC)c2)cc1OCc1ccccc1', 'A498 renal', 'y'),
  ('COc1cc(-c2c3c(cn2S(=O)(=O)c2ccccc2)-c2nc(N)sc2CC3)cc(OC)c1OC', 'A498 renal', 'n'),
  ('CCCCC(O)(c1ccc(Cl)cc1)C(CN1CCOCC1)c1ccc(Cl)cc1 (stereo unspecified)', 'A498 renal', 'n'),
  ('O=NN(C(=O)NC1CCC(C(=O)O)CC1)C1CCC(C(=O)O)CC1 (stereo unspecified)', 'A498 renal', 'n'),
  ('CCCCCCn1c(=N)n(CC(O)COc2cccc(C)c2)c2ccccc21 (stereo unspecified)', 'A498 renal', 'y'),
  ('COc1ccc(/C=C2\NC(=O)NC2=O)cc1O', 'A498 renal', 'n');
